tested on: 636577-100-R-J1-PDC complex spheroid viability; assay: Anticancer human tumor 636577-100-R-J1-PDC patient-derived endometrial adenocarcinoma cell line growth inhibition [GQUAD]; details: second compound 1 µM; first compound 0.1 µM; stronger effect = lower value
MEASURED_ENDPOINT: viability, T/C (%)
Numbers only, in %.

Worked examples, 2 molecules total:
- O=C(NO)c1cnc(N2CCN(S(=O)(=O)c3ccc4ccccc4c3)CC2)nc1 + Cc1[nH]c2ccc(F)cc2c1-c1nc2c3cccnc3c3ncccc3c2[nH]1: 29
- CC(C)n1c(=O)n(C)c2cnc3cc(F)c(-c4ccc(OCCCN5CCCCC5)nc4)cc3c21 + Cc1[nH]c2ccc(F)cc2c1-c1nc2c3cccnc3c3ncccc3c2[nH]1: 43.3

Your task in this section: give viability, T/C for each listed record.
1. CC1COCCN1c1cc(-c2ccnn2C)c2ccnc(-c3ccn[nH]3)c2n1 (stereo not given) + CN(C)c1ccc(Nc2c3ccc(NC(=O)CCN4CCCC4)cc3nc3cc(NC(=O)CCN4CCCC4)ccc23)cc1
2. Cc1cccc(N(C)C(=O)C2C(O)CCN2c2nc(C)cc(C(F)(F)F)c2C#N)c1 (stereo not given) + CN(C)c1ccc(Nc2c3ccc(NC(=O)CCN4CCCC4)cc3nc3cc(NC(=O)CCN4CCCC4)ccc23)cc1
3. C=CC(=O)N1CCN(c2nc(=O)n(-c3c(C)ccnc3C(C)C)c3nc(-c4c(O)cccc4F)c(F)cc23)C(C)C1 (stereo not given) + CN(C)c1ccc(Nc2c3ccc(NC(=O)CCN4CCCC4)cc3nc3cc(NC(=O)CCN4CCCC4)ccc23)cc1
4. CC1COCCN1c1cc(C2(S(C)(=N)=O)CC2)nc(-c2ccnc3[nH]ccc23)n1 (stereo not given) + Cc1cnc(CNC(=O)c2c(=O)c3ccc(N4CCCN(C)CC4)nc3n3c2sc2ccccc23)cn1

Resp:
[27.8, 87.2, 54.3, 22.7]

###

test system: 636577-100-R-J1-PDC complex spheroid viability; experiment: Anticancer human tumor 636577-100-R-J1-PDC cell line growth inhibition [GQUAD]; conditions: second compound 3.16 µM; first compound 0.1 µM; stronger effect = lower value;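 further: viability read after seven days of drug exposure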;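 on viability, T/C: luminescence signal used as a proxy for viable cells; 100% = DMSO vehicle control wells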
MEASURED_ENDPOINT: viability, T/C (%)
Numbers only, in %.

* C=CCn1c(=O)c2cnc(Nc3ccc(N4CCN(C)CC4)cc3)nc2n1-c1cccc(C(C)(C)O)n1 + Cc1[nH]c2ccc(F)cc2c1-c1nc2c3cccnc3c3ncccc3c2[nH]1 | 21.4
* COc1cc(C2c3cc4c(cc3C(OC3OC5COC(C)OC5C(O)C3O)C3COC(=O)C23)OCO4)cc(OC)c1O (stereo not drawn) + Cc1[nH]c2ccc(F)cc2c1-c1nc2c3cccnc3c3ncccc3c2[nH]1 | 23.9

Quick note, viability, T/C for CC1COCCN1c1cc(-c2ccnn2C)c2ccnc(-c3ccn[nH]3)c2n1 (stereo not drawn) + Cc1[nH]c2ccc(F)cc2c1-c1nc2c3cccnc3c3ncccc3c2[nH]1 landed at 18.7

###

Would you kindly list pIC50 for each of these compounds?
tested on: 636577-100-R-J1-PDC complex spheroid viability; experiment: Anticancer human tumor 636577-100-R-J1-PDC cell line growth inhibition [GQUAD]; details: curve of first compound; second compound 0.1 µM;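 further: viability read after seven days of drug exposure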
pIC50: −log10 of the molar value.

The cases that follow already have their pIC50 on record.
* COc1ncnc(C2CC2)c1-c1ncc2cnn(Cc3ccc(-c4nc(C(F)(F)F)cn4C(C)C)cc3)c2n1 + Cc1cnc(CNC(=O)c2c(=O)c3ccc(N4CCCN(C)CC4)nc3n3c2sc2ccccc23)cn1 | > 7.50
* C#Cc1c(F)ccc2cc(O)cc(-c3ncc4c(N5CC6CCC(C5)N6)nc(OCC56CCCN5CC(F)C6)nc4c3F)c12 (stereo unspecified) + CN(C)c1ccc(Nc2c3ccc(NC(=O)CCN4CCCC4)cc3nc3cc(NC(=O)CCN4CCCC4)ccc23)cc1 | 5.49
* Cn1ncnc1[C@H]1c2n[nH]c(=O)c3cc(F)cc(c23)N[C@@H]1c1ccc(F)cc1 + CN(C)c1ccc(Nc2c3ccc(NC(=O)CCN4CCCC4)cc3nc3cc(NC(=O)CCN4CCCC4)ccc23)cc1 | 7.61
* Cc1cccc(N(C)C(=O)C2C(O)CCN2c2nc(C)cc(C(F)(F)F)c2C#N)c1 (stereo unspecified) + CN(C)c1ccc(Nc2c3ccc(NC(=O)CCN4CCCC4)cc3nc3cc(NC(=O)CCN4CCCC4)ccc23)cc1 | < 5.00

Can you give me pIC50 for all of these, one by one?
1. CC1COCCN1c1cc(C2(O)CC3CCC(C2)O3)c2cnn(-c3ccn[nH]3)c2n1 (stereo unspecified) + Cc1cnc(CNC(=O)c2c(=O)c3ccc(N4CCCN(C)CC4)nc3n3c2sc2ccccc23)cn1
2. CC1COCCN1c1cc(-c2ccnn2C)c2ccnc(-c3ccn[nH]3)c2n1 (stereo unspecified) + Cc1cnc(CNC(=O)c2c(=O)c3ccc(N4CCCN(C)CC4)nc3n3c2sc2ccccc23)cn1
3. Cn1ncnc1[C@H]1c2n[nH]c(=O)c3cc(F)cc(c23)N[C@@H]1c1ccc(F)cc1 + Cc1cnc(CNC(=O)c2c(=O)c3ccc(N4CCCN(C)CC4)nc3n3c2sc2ccccc23)cn1
4. C#Cc1c(F)ccc2cc(O)cc(-c3ncc4c(N5CC6CCC(C5)N6)nc(OCC56CCCN5CC(F)C6)nc4c3F)c12 (stereo unspecified) + Cc1[nH]c2ccc(F)cc2c1-c1nc2c3cccnc3c3ncccc3c2[nH]1
5. O=C(c1cc(Cc2n[nH]c(=O)c3ccccc23)ccc1F)N1CCN(C(=O)C2CC2)CC1 + CN(C)c1ccc(Nc2c3ccc(NC(=O)CCN4CCCC4)cc3nc3cc(NC(=O)CCN4CCCC4)ccc23)cc1
6. O=C(NO)c1cnc(N2CCN(S(=O)(=O)c3ccc4ccccc4c3)CC2)nc1 + Cc1cnc(CNC(=O)c2c(=O)c3ccc(N4CCCN(C)CC4)nc3n3c2sc2ccccc23)cn1

Resp:
> 7.50
> 7.50
> 9.00
5.32
5.84
> 7.50

Batch: pIC50 for all items listed.
1. Nc1ccn(C2OC(CO)C(O)C2(F)F)c(=O)n1 (stereo unspecified) + Cc1cnc(CNC(=O)c2c(=O)c3ccc(N4CCCN(C)CC4)nc3n3c2sc2ccccc23)cn1
2. COc1cccc2c1C(=O)c1c(O)c3c(c(O)c1C2=O)CC(O)(C(=O)CO)CC3OC1CC(N)C(O)C(C)O1 (stereo unspecified) + Cc1[nH]c2ccc(F)cc2c1-c1nc2c3cccnc3c3ncccc3c2[nH]1
3. CC1COCCN1c1cc(C2(S(C)(=N)=O)CC2)nc(-c2ccnc3[nH]ccc23)n1 (stereo unspecified) + Cc1cnc(CNC(=O)c2c(=O)c3ccc(N4CCCN(C)CC4)nc3n3c2sc2ccccc23)cn1
4. CC(C)(O)C1CCC(Nc2ccc3ncc(-c4cccc(C(F)(F)F)c4)n3n2)CC1 (stereo unspecified) + Cc1[nH]c2ccc(F)cc2c1-c1nc2c3cccnc3c3ncccc3c2[nH]1
5. CCc1c2c(nc3ccc(O)cc13)-c1cc3c(c(=O)n1C2)COC(=O)[C@]3(O)CC + CN(C)c1ccc(Nc2c3ccc(NC(=O)CCN4CCCC4)cc3nc3cc(NC(=O)CCN4CCCC4)ccc23)cc1
6. CCCS(=O)(=O)Nc1ccc(F)c(C(=O)c2c[nH]c3ncc(-c4ccc(Cl)cc4)cc23)c1F + Cc1[nH]c2ccc(F)cc2c1-c1nc2c3cccnc3c3ncccc3c2[nH]1
7. C=CC(=O)N1CCN(c2nc(=O)n(-c3c(C)ccnc3C(C)C)c3nc(-c4c(O)cccc4F)c(F)cc23)C(C)C1 (stereo unspecified) + CN(C)c1ccc(Nc2c3ccc(NC(=O)CCN4CCCC4)cc3nc3cc(NC(=O)CCN4CCCC4)ccc23)cc1

Resp:
["> 7.50", "> 7.50", "> 7.50", 6.01, "> 9.00", 5.27, "< 5.00"]

For every listed record, write down its pIC50.
1. O=C(NO)c1cnc(N2CCN(S(=O)(=O)c3ccc4ccccc4c3)CC2)nc1 + CN(C)c1ccc(Nc2c3ccc(NC(=O)CCN4CCCC4)cc3nc3cc(NC(=O)CCN4CCCC4)ccc23)cc1
2. Cc1cccc(N(C)C(=O)C2C(O)CCN2c2nc(C)cc(C(F)(F)F)c2C#N)c1 (stereo unspecified) + Cc1[nH]c2ccc(F)cc2c1-c1nc2c3cccnc3c3ncccc3c2[nH]1

Resp:
1: > 7.50; 2: < 5.00

Dear colleague, could you send me pIC50 for each of the items below? Thanks.
1. CC1COCCN1c1cc(C2(O)CC3CCC(C2)O3)c2cnn(-c3ccn[nH]3)c2n1 (stereo unspecified) + Cc1[nH]c2ccc(F)cc2c1-c1nc2c3cccnc3c3ncccc3c2[nH]1
2. CC1COCCN1c1cc(-c2ccnn2C)c2ccnc(-c3ccn[nH]3)c2n1 (stereo unspecified) + Cc1[nH]c2ccc(F)cc2c1-c1nc2c3cccnc3c3ncccc3c2[nH]1

Resp:
1. 7.20
2. 7.07
